assay name: Solubilities of clotrimazole and testosterone in different solvents
condition label: organic solvent or mixture, Solubility, solvent: (S)-(—)-Limonene
assay readout: solubility

### Prompt Hello, please tell me recorded solubility for this one: "C[C@]12CC[C@H]3[C@@H](CCC4=CC(=O)CC[C@@]43C)[C@@H]1CC[C@@H]2O"
### Response < 100 mg/mL

###

assay name: Solubilities of clotrimazole and testosterone in different solvents
condition label: organic solvent or mixture, Solubility, solvent: 20% Carvacrol/80% EtOH
assay readout: solubility (mg/mL)
Give bare numbers, in mg/mL.

### Prompt Look up and report measured solubility for this entry: "C[C@]12CC[C@H]3[C@@H](CCC4=CC(=O)CC[C@@]43C)[C@@H]1CC[C@@H]2O"
### Response 260

###

assay name: Solubilities of clotrimazole and testosterone in different solvents
condition label: organic solvent or mixture, Solubility, solvent: 20% Thymol/80% EtOH
assay readout: solubility (mg/mL)
Give bare numbers, in mg/mL.

### Prompt Supply reported solubility belonging to this compound: "C[C@]12CC[C@H]3[C@@H](CCC4=CC(=O)CC[C@@]43C)[C@@H]1CC[C@@H]2O"
### Response 330

###

Assignment: determine reported Dissolved amount for the given molecules.
assay name: Solubilities of active ingredients in carvacrol or carvacrol-containing (or thymol) formulations
Format: physicochemical
condition label: solvent: Carvacrol
Give bare numbers, in mg/mL.

>>> df
                          molecule  quantity_unit  measurement
0          O=c1[nH]cc(F)c(=O)[nH]1          mg/mL           25
1  CCn1cc(C(=O)O)c(=O)c2ccc(C)nc21          mg/mL          108

### Prompt Please indicate Dissolved amount recorded for Cl.Cl.Fc1ccc(C(c2ccc(F)cc2)N2CCN(C/C=C/c3ccccc3)CC2)cc1 [Flunarizine*2HCl]
### Response 60
